pKi: −log10 of the molar value.
pKi values for Adenosine receptor A3 (Homo sapiens, UniProt P0DMS8), compiled from several publications.
READOUT KIND: pKi

Some solved entries appear below for comparison.
Cc1nc(NC(=O)c2ccccc2)c2nc(-c3ccccc3)sc2n1 : 6.16
CCCCc1cn(-c2nc(NC)c3ncn([C@@H]4O[C@H](C(=O)NCC)[C@@H](O)[C@H]4O)c3n2)nn1 : 8.25

a. CN(C)C(=O)[C@H]1S[C@@H](n2cnc3c(NC4CC4)nc(Cl)nc32)[C@H](O)[C@@H]1O
b. Cc1nc(NC(=O)c2ccco2)c2nn(-c3ccccc3)cc2n1
c. O=C(CCc1ccccc1)Nc1nc(-c2ccccc2)n[nH]1
// query Endpoint returns the given compounds ordered by ascending pKi. Submit the labels in the order that the ranking request calls for.
// result c, a, b
